System: SW-620
Assay: NCI tumour cell line growth inhibition, 48 h
Activity calls are given as the source filed them. Rule as the data show it: active = GI50 up to about 1.1 µM and inactive = higher.
measured-parameter: GI50

> print(dat)
                            chemical.smiles      measured.result
1           Sc1nnc(SCc2ccccc2Cl)c2nc[nH]c12  > 100 µM (inactive)
2  C=CCCC(=O)C(=[N+]=[N-])C(=O)CCC(=O)c1ccccc1   > 10 µM (inactive)
3                         Cc1nc2ccncc2[nH]1  > 100 µM (inactive)

====

System: A498
Experiment: NCI tumour cell line growth inhibition, 48 h
The source made the active and inactive calls. Rule as the data show it: active = GI50 up to about 1.1 µM and inactive = higher.
measured-parameter: GI50

> print(dat)
                                    compound       measured.result
 1  CC(C)(C)N1NC1C1NN1C(C)(C)C (stereo unspecified)   > 100 µM (inactive)
 2  CCCC/C=C/C/C=C/CCCCCCCCC(=O)OCC1CCCN2CCCCC12 (stereo unspecified)   > 100 µM (inactive)
 3  COc1cc2c(c(OC)c1)C(C)=NC(C)C2 (stereo unspecified)   > 100 µM (inactive)
 4  COc1ccc(/C(=N/NC(N)=O)C2(O)C(=O)Nc3ccc([N+](=O)[O-])cc32)cc1 (stereo unspecified)    29.2 µM (inactive)
 5  C=C(C)C(=O)[C@@]12C(=O)[C@@H](C)CC[C@H]1[C@H](C)C[C@@H]2C=C(C)C    52.4 µM (inactive)
 6  OC(c1cc(C(F)(F)F)nc2c(Cl)cc(Cl)cc12)C1CCCCN1 (stereo unspecified)  > 36.1 µM (inactive)
 7  CCOC(=O)C(=O)/C=C(\C)Nc1c(NC2OCC(OC(C)=O)C(OC(C)=O)C2OC(C)=O)nc(SC)[nH]c1=O (stereo unspecified)   > 100 µM (inactive)
 8          O=C1CCCC(=O)N1CCc1c[nH]c2ccccc12    77.3 µM (inactive)
 9                         Cc1nc2ccncc2[nH]1   > 100 µM (inactive)
10  O=P(Oc1ccccc1)(Oc1ccccc1)Oc1c[nH]c2ccccc12    14.1 µM (inactive)
11  O=C1C2=Cc3ccccc3OC2(O)Oc2cc(O)cc(O)c21 (stereo unspecified)   > 100 µM (inactive)

====

System: RXF 631
Test: NCI tumour cell line growth inhibition, 48 h
Calls of active or inactive are those of the source. No stated cut-off is given here; in the data, active = GI50 up to about 1.1 µM and inactive = higher.
measured-parameter: GI50

> print(dat)
                                    molecule       measured.result
 1  CCOC(=O)c1cc(/C=C/C(C)=C/C(=O)OC)n(C)c1C   > 100 µM (inactive)
 2  CCOC(=O)C(C(=O)OCC)=C1N[C@H](C(=O)OCC)CS1   > 100 µM (inactive)
 3  Cn1c(=O)c2c3oc(=O)cc(O)c3c(=O)n3c4ccccc4n(c1=O)c23    46.6 µM (inactive)
 4  COc1cc(NC(C)CCCN)c2ncccc2c1 (stereo not given) [PRIMAQUINE PHOSPHATE]  > 91.2 µM (inactive)
 5  CC(C)(CN1CCCCC1)C(=O)/C=C/c1ccc(Cl)c(Cl)c1    1.72 µM (inactive)
 6  NC(CCCC(N)P(=O)(O)O)P(=O)(O)O (stereo not given)   > 100 µM (inactive)
 7                 O=C(O)CCSC(=O)Nc1ccccc1Cl   > 100 µM (inactive)
 8  CC1=C(c2cc(C(=O)Nc3nccs3)nc(NC#N)n2)Sc2ccccc2N1   > 100 µM (inactive)
 9  c1c2c(cc(-n3nnc4c3CCCCCC4)c1-n1nnc3c1CCCCCC3)CCCCCC2    10.1 µM (inactive)
10  O=C(O)CCN(CCCN(CCC(=O)O)CCC(=O)O)CCC(=O)O   > 100 µM (inactive)
11                      NCCSSCc1ccccc1CSSCCN   > 100 µM (inactive)
12                       N#C/C(N)=N/c1ccccc1   > 100 µM (inactive)
13  CN1c2ccccc2N(C)C2C1N(C)c1ccccc1N2C (stereo not given)    37.1 µM (inactive)
14  C[N+](C)(C)CC(=O)N/N=C(/Cc1cc(=O)oc2cc(O)ccc12)C(=O)Nc1ccc(Cl)cc1   > 100 µM (inactive)
15  COc1cc2c(cc1O)[C@H](C)C(c1ccc(Cl)cc1)O2 (stereo not given in full)      26 µM (inactive)

Recorded values, source ChEMBL document CHEMBL1201862.
